Target: human C5 protein (human, UniProt P01031 19-673; P01031 678-1676)
Test: cell-based or functional assay
Positions of bridges follow the written chain, without caps; N, C: chain ends. Non-standard residues stand in square brackets, D forms with d. Primed or numbered codes have the meaning given here. No end group written: not given here. mXylyl(3) = bridging moiety between the two residues given in brackets; Trp(7-aza) = N[C@@H](Cc1c[nH]c2ncccc12)C(=O)O; hPhe(3-Cl) = N[C@@H](CCc1cccc(Cl)c1)C(=O)O; NMeD = CN[C@@H](CC(=O)O)C(=O)O; Chg = N[C@H](C(=O)O)C1CCCCC1; Phg = N[C@H](C(=O)O)c1ccccc1; Tle = CC(C)(C)[C@H](N)C(=O)O; Nva = CCC[C@H](N)C(=O)O
Avg. IC50, hemolysis assay (C5 depleted sera + purified human C5) less than 60 nM is yes (1); Avg. IC50, hemolysis assay (C5 depleted sera + purified human C5) greater than or equal to 60 nM is no (0).

Completed entries (count: 3):
Ac-CVERFCD[Tle]Y[Trp(7-aza)]EWP[Chg][Nva] (linker 1-6 via mXylyl(3)) [R3177]	yes (1)
[(desamino)Cys]VERFC[NMeD][Tle]Y[Trp(7-aza)]EYP[Chg]K(C16) (bridge 1-6) [R3198]	no (0)
Ac-CVERFCD[Tle]Y[Trp(7-aza)]E[hPhe(3-Cl)]P[Chg][Nva] (linker 1-6 via mXylyl(3)) [R3179]	no (0)

## Task Determine if Ac-CAERFCD[Tle]Y[Trp(7-aza)]EYP[Phg]K(C16) (linker 1-6 via mXylyl(3)) [R3189] shows Avg. IC50, hemolysis assay (C5 depleted sera + purified human C5) strictly lower than 60 nM.
## Result no (0)

## Task Determine if VERFCDGYWEYPGV ([cyclo-thioalkyl(1,5)]V-E-R-F-C-D-Tbg-Y-azaTrp-E-Y-P-Chg-Nvl) [R3184] shows Avg. IC50, hemolysis assay (C5 depleted sera + purified human C5) strictly lower than 60 nM.
## Result yes (1)

## Task Determine if Ac-KVERFD[NMeD][Tle]YWEYP[Chg]K(C16) (lactam 1-6) [R3195] shows Avg. IC50, hemolysis assay (C5 depleted sera + purified human C5) strictly lower than 60 nM.
## Result no (0)
